# PROCEDURE SUMMARY: chemical genetic growth profiling, strain panel (AID 1159580);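 note: tested at 20 µM; growth read once vehicle control cultures reached saturation at 30 °C; 1 = growth at the plate median or of vehicle wells; lower values mean less growth of the strain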
# RUN PARAMETERS: S. cerevisiae deletion strains, growth OD, locus YBR231C, strain swc5, stronger effect = lower value
Among all 5,500 compounds or so, about 2,000 (36%) were called active. Inconclusive results (about 18%) are left out. The list shows a part of the results.
Each item that follows carries a reported normalized growth.
Give a plain numeric answer without units written out.

Below, each entry is followed by its recorded normalized growth result.
{"columns": ["MOLECULE", "normalized growth"],
 "data": [
  ["CCCCC(=O)N(Cc1ccc(-c2ccccc2-c2nn[nH]n2)cc1)[C@H](C(=O)O)C(C)C", 1.01],
  ["COc1cc(O)c(C(=O)O)c(O)c1", 1],
  ["CC1(C)C[C@@H]2C(=O)CC[C@H]3O[C@]3(C)CC[C@H]21", 1],
  ["COc1ccc2c(=O)c(CC(=O)O)coc2c1", 0.972],
  ["Cn1c(=O)[nH]c(=O)c2[nH]cnc21", 0.993]
]}

input: Name the recorded normalized growth of the molecule listed here: CCCc1nc(C(C)(C)O)c(C(=O)OCc2oc(=O)oc2C)n1Cc1ccc(-c2ccccc2-c2nn[nH]n2)cc1
output: 0.974

input: Supply recorded normalized growth for CCCCCN=C(N)N/N=C\c1c[nH]c2ccc(OC)cc12 here.
output: 1

input: Recall and state the measured normalized growth for COc1cc(OC)c2c(c1Cl)OC1(C2=O)C(O)=CC(=O)CC1C (stereo unspecified) .
output: 1.01

input: Answer with the recorded normalized growth for the molecule listed here: O=C(O)c1cc2cc(Cl)ccc2[nH]1
output: 0.987

input: Please indicate normalized growth recorded for FC(F)(F)COCC(F)(F)F
output: 1.02

input: Report normalized growth, nothing else, for this molecule: CCOc1nc2cccc(C(=O)OC(C)OC(=O)OC3CCCCC3)c2n1Cc1ccc(-c2ccccc2-c2nn[nH]n2)cc1 (stereo unspecified)
output: 1.01

====

The compounds listed here are annotated with their normalized growth.
# PROCEDURE SUMMARY: chemical genetic growth profiling, strain panel (AID 1159580)
# RUN PARAMETERS: S. cerevisiae deletion strains, growth OD, locus YKL085W, strain MDH1 (second series), stronger effect = lower value
Among all 5,500 compounds or so, about 2,000 (36%) were called active. Another 18% or so got no clear call; they are omitted. The list shows a part of the results.
Write the number on its own, no unit after it.

Answered cases to consult:
{"columns": ["COMPOUND", "normalized growth"],
 "data": [
  ["C[C@]12C=CC(=O)C=C1CCC1C2CC[C@]2(C)C(=O)CCC12 (stereo partly specified)", 0.993],
  ["CN1Cc2c(N)cccc2C(c2ccccc2)C1 (stereo unspecified)", 1.01],
  ["CN1CCN(C(c2ccccc2)c2ccccc2)CC1", 0.973]
]}

input: Quick one: give measured normalized growth for CSCCC(NC=O)C(=O)NC(CC(C)C)C(=O)NC(Cc1ccccc1)C(=O)O (stereo unspecified)
output: 0.995

input: Annotate the compound C[C@]12C=CC(=O)C=C1CCC1C2C(=O)C[C@@]2(C)C1CC[C@]2(O)C(=O)CO (stereo partly specified) with its measured normalized growth.
output: 0.998

input: Please indicate normalized growth recorded for Fc1ccc(C(c2ccc(F)cc2)N2CCN(C/C=C/c3ccccc3)CC2)cc1
output: 0.974

====

# PROCEDURE SUMMARY: chemical genetic growth profiling, strain panel (AID 1159580)
# RUN PARAMETERS: S. cerevisiae deletion strains, growth OD, locus YNL248C, strain rpa49, stronger effect = lower value
Hit rate of the full screen: of about 5,500 compounds, about 2,000 (36%) were called active. Inconclusive results (about 18%) are left out. Some of the results follow.
Below, each of the compounds is paired with its reported normalized growth value.
Form rule: numeric answer, no unit written next to it.

// below: answered compounds
{"columns": ["COMPOUND", "normalized growth"],
 "data": [
  ["C[C@]12CCC3C(CC[C@H]4CC(=O)CC[C@]34C)C1CCC2=O (stereo partly specified)", 0.908],
  ["C=C1CC2C(CCC3(C)C(=O)CCC23)C2(C)C=CC(=O)C=C12 (stereo unspecified)", 1],
  ["OCCN1CCN(CCCN2c3ccccc3Sc3ccc(Cl)cc32)CC1", 0.998],
  ["COc1ccc2[nH]cc(CCNC(C)=O)c2c1", 0.968],
  ["Nc1ncnc2nc[nH]c12", 0.982]
]}

input: State its normalized growth: O=C(O)CCCN1C(=O)c2cccc3cccc(c23)C1=O
output: 0.98

input: In one line, give reported normalized growth of the entry C[C@]12C=CC(=O)C=C1CCC1C2C(=O)C[C@@]2(C)C1CC[C@]2(O)C(=O)CO (stereo partly specified) .
output: 1

input: Let me know recorded normalized growth for O=c1n(CCCN2CCN(c3cccc(Cl)c3)CC2)nc2ccccn12 , thanks.
output: 0.976

====

# PROCEDURE SUMMARY: chemical genetic growth profiling, strain panel (AID 1159580);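 note: tested at 20 µM; growth read once vehicle control cultures reached saturation at 30 °C; 1 = growth at the plate median or of vehicle wells; lower values mean less growth of the strain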
# RUN PARAMETERS: S. cerevisiae deletion strains, growth OD, strain TSCII, stronger effect = lower value
Screen size: about 5,500 compounds; about 2,000 (36%) were called active. Another 18% or so got no clear call; they are omitted. The list shows a part of the results.
EXPERIMENTAL READOUT: normalized growth

Worked cases, answers included:
{"columns": ["COMPOUND", "normalized growth"],
 "data": [
  ["CCCCCc1ccc(S(=O)(=O)Nc2ncc(C)cc2Br)cc1", "0.955 (inactive)"],
  ["N#C/C(=C\\C=C\\c1ccccc1)c1nc2ccccc2[nH]1", "0.952 (inactive)"],
  ["Cc1nc([N+](=O)[O-])cn1CC(=O)c1ccc(Cl)cc1", "0.969 (inactive)"],
  ["CSc1nc(Sc2n[nH]c(-c3ccccc3)n2)cc(Sc2n[nH]c(-c3ccccc3)n2)n1", "1.01 (inactive)"],
  ["CSC(SC)=C(C#N)C(=O)c1ccccc1Cl", "0.434 (active)"]
]}

As a next step, examine the compound that follows.
input: Give the reported normalized growth for this compound. CC(Oc1ccc(Cl)cc1Cl)C(=O)NNC(=S)Nc1ccccc1 (stereo unspecified)
output: 0.983 (inactive)

====

# PROCEDURE SUMMARY: chemical genetic growth profiling, strain panel (AID 1159580);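 note: tested at 20 µM; growth read once vehicle control cultures reached saturation at 30 °C; 1 = growth at the plate median or of vehicle wells; lower values mean less growth of the strain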
# RUN PARAMETERS: S. cerevisiae deletion strains, growth OD, locus YNL322C, strain KRE1 (second series), stronger effect = lower value
The campaign covered roughly 5,500 compounds. About 2,000 (36%) were called active. Another 18% or so got no clear call; they are omitted. This is one part of the list.
Documented normalized growth across a set of molecules
In your answer, state the number alone without any accompanying words.

{"columns": ["MOLECULE", "normalized growth"],
 "data": [
  ["CC1=C2CCC3C(CC[C@]4(C)C(=O)CCC34)[C@@]2(C)CCC1=O (stereo not given in full)", 0.986],
  ["O=C1c2ccccc2-c2cccc3cccc1c23", 0.966],
  ["CC1(C)S[C@@H]2[C@H](NC(=O)COc3ccccc3)C(=O)N2[C@H]1C(=O)O", 0.997]
]}

input: Using known records, supply normalized growth for CC(C)(O)CC[C@@H](O)[C@](C)(O)C1CC[C@@]2(O)C3=CC(=O)C4C[C@@H](O)[C@@H](O)C[C@]4(C)C3CC[C@]12C (stereo not given in full)
output: 0.983

input: Report measured normalized growth; entry is CC(=O)c1ccc2c(c1)N(CCCN(C)C)c1ccccc1S2
output: 0.987

input: Name the recorded normalized growth of the molecule listed here: OCCN1CCN(CCCN2c3ccccc3Sc3ccc(Cl)cc32)CC1
output: 1

input: Give normalized growth for the following molecule: O=c1n(CCCN2CCN(c3cccc(Cl)c3)CC2)nc2ccccn12
output: 0.964

input: State, in one line, measured normalized growth of CC1=C(C(=O)O)N2C(=O)[C@@H](NC(=O)[C@H](N)C3=CCC=CC3)C2SC1 (stereo not given in full)
output: 1.01

input: Answer with reported normalized growth of O=C(O)CCCN1C(=O)c2cccc3cccc(c23)C1=O
output: 1.02

input: Annotate the molecule C[N+]1(C)CCc2cc3c(cc2[C@H]1C1OC(=O)c2c1ccc1c2OCO1)OCO3 (stereo not given in full) with its measured normalized growth.
output: 1

====

Measured normalized growth accompanies every entry in the list below.
# PROCEDURE SUMMARY: chemical genetic growth profiling, strain panel (AID 1159580);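 note: tested at 20 µM; growth read once vehicle control cultures reached saturation at 30 °C; 1 = growth at the plate median or of vehicle wells; lower values mean less growth of the strain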
# RUN PARAMETERS: S. cerevisiae deletion strains, growth OD, locus YNL183C, strain NPR1, stronger effect = lower value
The whole screen tested about 5,500 compounds, of which about 2,000 (36%) were called active. Inconclusive results (about 18%) are left out. This is one part of the list.
Answer with a bare number; do not write a unit.

{"columns": ["MOLECULE", "EXPERIMENTAL READOUT", "EXPERIMENTAL RESULT"],
 "data": [
  ["COc1cc2ccc(=O)oc2c2ccoc12", "normalized growth", 0.977],
  ["NNC(=O)COc1ccc(C2SCCS2)cc1", "normalized growth", 0.187]
]}

input: Look up and state reported normalized growth for O=C(O)c1cc2cc(Cl)ccc2[nH]1
output: 0.866
